The origin of these recorded values is paper PMC7024302.

Test system: human red blood cells (hRBCs)
Type: cell-based
experimental_parameters: red cells of human, 1 h
Residues, ends and D or L forms follow the SMILES beside them. *: point of attachment. Myristoyl = CCCCCCCCCCCCCC(=O)*; Acm = CC(=O)NC*
quantity_measured: HC50

molecule: CCCCCCCCCCCC(=O)N[C@@H](Cc1ccc(O)cc1)C(=O)N[C@@H](CCCNC(=N)N)C(=O)N[C@@H](CCCNC(=N)N)C(N)=O [compound 101, C12-YRR-NH2] (HELM PEPTIDE1{[CCCCCCCCCCCC(=O)[*:2]].Y.R.R.[am]}$$$$V2.0)
quantity_measured: HC50
obs_value: 123.08 (±1.12) µg/mL

molecule: CCCCCCCCCCCCCC(=O)N[C@@H](CCC(N)=O)C(=O)N[C@@H](CCCNC(=N)N)C(=O)N[C@@H](CCCNC(=N)N)C(N)=O [compound 78, C14-QRR-NH2] (HELM PEPTIDE1{[CCCCCCCCCCCCCC(=O)[*:2]].Q.R.R.[am]}$$$$V2.0)
quantity_measured: HC50
obs_value: 72.31 (±3.00) µg/mL

molecule: CCCCCCCCCCCC(=O)N[C@@H](CCSC)C(=O)N[C@@H](CCCNC(=N)N)C(=O)N[C@@H](CCCNC(=N)N)C(N)=O [compound 49, C12-MRR-NH2] (HELM PEPTIDE1{[CCCCCCCCCCCC(=O)[*:2]].M.R.R.[am]}$$$$V2.0)
quantity_measured: HC50
obs_value: 206.50 (±9.14) µg/mL

molecule: CCCCCCCCCCCC(=O)N[C@@H](CCCNC(=N)N)C(=O)N[C@@H](CCCNC(=N)N)C(=O)N[C@@H](CCCNC(=N)N)C(N)=O [compound 81, C12-RRR-NH2] (HELM PEPTIDE1{[CCCCCCCCCCCC(=O)[*:2]].R.R.R.[am]}$$$$V2.0)
quantity_measured: HC50
obs_value: >256 µg/mL

molecule: CCCCCCCCCCCCCC(=O)N[C@@H](CCSC)C(=O)N[C@@H](CCCNC(=N)N)C(=O)N[C@@H](CCCNC(=N)N)C(N)=O [compound 50, C14-MRR-NH2] (HELM PEPTIDE1{[CCCCCCCCCCCCCC(=O)[*:2]].M.R.R.[am]}$$$$V2.0)
quantity_measured: HC50
obs_value: 35.11 (±0.90) µg/mL

molecule: CCCCCCCCCCCCCC(=O)N[C@@H](CC(=O)O)C(=O)N[C@@H](CCCNC(=N)N)C(=O)N[C@@H](CCCNC(=N)N)C(N)=O [compound 18, C14-DRR-NH2] (HELM PEPTIDE1{[CCCCCCCCCCCCCC(=O)[*:2]].D.R.R.[am]}$$$$V2.0)
quantity_measured: HC50
obs_value: 49.95 (±1.00) µg/mL

molecule: CCCCCCCCCCCCCC(=O)N[C@@H](CCCNC(=N)N)C(=O)N[C@@H](CCCNC(=N)N)C(N)=O [compound 4, C14-RR-NH2, reference compound] (HELM PEPTIDE1{[CCCCCCCCCCCCCC(=O)[*:2]].R.R.[am]}$$$$V2.0)
quantity_measured: HC50
obs_value: 68.43 (±1.41) µg/mL

molecule: CCCCCCCCCCCCCC(=O)N[C@@H](CO)C(=O)N[C@@H](CCCNC(=N)N)C(=O)N[C@@H](CCCNC(=N)N)C(N)=O [compound 86, C14-SRR-NH2] (HELM PEPTIDE1{[CCCCCCCCCCCCCC(=O)[*:2]].S.R.R.[am]}$$$$V2.0)
quantity_measured: HC50
obs_value: 41.54 (±1.29) µg/mL

molecule: CCCCCCCCCCCC(=O)N[C@@H](CC(C)C)C(=O)N[C@@H](CCCNC(=N)N)C(=O)N[C@@H](CCCNC(=N)N)C(N)=O [compound 45, C12-LRR-NH2] (HELM PEPTIDE1{[CCCCCCCCCCCC(=O)[*:2]].L.R.R.[am]}$$$$V2.0)
quantity_measured: HC50
obs_value: 112.81 (±1.39) µg/mL

molecule: CCCCCCCCCCCCCC(=O)N1CCC[C@H]1C(=O)N[C@@H](CCCNC(=N)N)C(=O)N[C@@H](CCCNC(=N)N)C(N)=O
quantity_measured: HC50
obs_value: 53.41 (±1.84) µg/mL

molecule: CCCCCCCCCCCCCC(=O)N[C@@H](CSCNC(C)=O)C(=O)N[C@@H](CCCNC(=N)N)C(=O)N[C@@H](CCCNC(=N)N)C(N)=O [compound 14, C14-C(Acm)RR-NH2] (Myristoyl-Cys(Acm)-Arg-Arg-NH2)
quantity_measured: HC50
obs_value: 39.72 (±1.25) µg/mL

molecule: CCCCCCCCCC(=O)N[C@@H](CCCC)C(=O)N[C@@H](CCCNC(=N)N)C(=O)N[C@@H](CCCNC(=N)N)C(N)=O [compound 64, C10-NleRR-NH2] (HELM PEPTIDE1{[CCCCCCCCCC(=O)[*:2]].[Nle].R.R.[am]}$$$$V2.0)
quantity_measured: HC50
obs_value: >256 µg/mL

molecule: CCCCCCCCCCCCCC(=O)N[C@@H](Cc1ccc(O)cc1)C(=O)N[C@@H](CCCNC(=N)N)C(=O)N[C@@H](CCCNC(=N)N)C(N)=O [compound 102, C14-YRR-NH2] (HELM PEPTIDE1{[CCCCCCCCCCCCCC(=O)[*:2]].Y.R.R.[am]}$$$$V2.0)
quantity_measured: HC50
obs_value: 46.52 (±5.24) µg/mL

molecule: CCCCCCCCCCCCCC(=O)N[C@@H](C)C(=O)N[C@@H](CCCNC(=N)N)C(=O)N[C@@H](CCCNC(=N)N)C(N)=O [compound 10, C14-ARR-NH2] (HELM PEPTIDE1{[CCCCCCCCCCCCCC(=O)[*:2]].A.R.R.[am]}$$$$V2.0)
quantity_measured: HC50
obs_value: 41.08 (±0.62) µg/mL

molecule: CCCCCCCCCC(=O)N[C@@H](Cc1ccccc1)C(=O)N[C@@H](CCCNC(=N)N)C(=O)N[C@@H](CCCNC(=N)N)C(N)=O [compound 24, C10-FRR-NH2] (HELM PEPTIDE1{[CCCCCCCCCC(=O)[*:2]].F.R.R.[am]}$$$$V2.0)
quantity_measured: HC50
obs_value: >256 µg/mL

molecule: CCCCCCCCCCCC(=O)N[C@@H](CCCC)C(=O)N[C@@H](CCCNC(=N)N)C(=O)N[C@@H](CCCNC(=N)N)C(N)=O [compound 65, C12-NleRR-NH2] (HELM PEPTIDE1{[CCCCCCCCCCCC(=O)[*:2]].[Nle].R.R.[am]}$$$$V2.0)
quantity_measured: HC50
obs_value: >256 µg/mL
